Below, each of the compounds is paired with its reported pIC50 value.
Test system: HIV-1 IIIB
Assay: HOS HIV-1 infectivity assay
Type: cell-based
Conditions: Human immunodeficiency virus 1, IIIB; as determined by the infectivity assay; strain not stated in Table 2; read-out: Activity Level
pIC50: −log10 of the molar value.

Worked examples, 4 compounds total:
>>> df
                                   compound        result
0  CN(Cc1nc2ccccc2n1CCCN1CCOCC1)C1CCCc2cccnc21 (centres unmarked)  6.30 to 7.00
1  CC(C)N1CCC[C@H]1CN1CCC[C@H](Cn2c(CN(C)[C@H]3CCCc4cccnc43)nc3ccccc32)C1        > 7.00
2  CN(Cc1nc2ccccc2n1CCc1cncn1C)C1CCCc2cccnc21 (centres unmarked)  6.30 to 7.00
3  CN(C)C/C=C\Cn1c(CN(C)C2CCCc3cccnc32)nc2ccccc21 (centres unmarked)        > 7.00

Attention now shifts to the item below.
In: Looking for the measured pIC50 of CN(Cc1nc2ccccc2n1CCCNC(=N)N)C1CCCc2cccnc21 (centres unmarked) , can you help?
Out: > 7.00
